- Assay Target: human PAH with the R408W mutation (Homo sapiens, UniProt P00439, R408W)
- Construct: expressed in transfected cells
- Sequence (P00439 1-452 R408W): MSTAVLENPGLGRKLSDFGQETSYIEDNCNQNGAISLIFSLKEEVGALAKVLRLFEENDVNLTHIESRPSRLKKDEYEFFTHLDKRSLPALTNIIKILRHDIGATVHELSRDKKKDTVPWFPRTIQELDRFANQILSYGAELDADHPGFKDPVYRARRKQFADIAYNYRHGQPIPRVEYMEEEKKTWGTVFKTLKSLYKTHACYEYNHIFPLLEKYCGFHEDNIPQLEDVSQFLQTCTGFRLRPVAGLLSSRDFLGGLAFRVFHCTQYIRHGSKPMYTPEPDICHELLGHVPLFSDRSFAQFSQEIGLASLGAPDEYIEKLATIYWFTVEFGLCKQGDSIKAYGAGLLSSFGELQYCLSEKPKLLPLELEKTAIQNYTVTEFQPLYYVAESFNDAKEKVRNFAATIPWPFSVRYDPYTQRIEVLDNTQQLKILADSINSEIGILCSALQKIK
- Experiment Summary: Cell Based Phenylalanine Flux Assay
- Measurement Conditions: A375 cells expressing human R408W PAH; 24 hrs compound incubation; 13C-Tyrosine by LC-MS; average where tested multiple times; read-out: AC50
Reported Property: AC50

Field: example entries. Status: answers known.
> print(dat)
                                   compound           result
1  FC(F)(F)c1cnc(N2CCc3[nH]cnc3[C@H]2c2cn3ccccc3n2)nc1 [Example 231]         < 500 nM
2  O=C(c1cnc(-c2ccccn2)o1)N1CCc2[nH]cnc2[C@H]1c1cc2ccccc2cn1 [Example 308]         < 500 nM
3  C[C@H]1CN(C(=O)c2nnc(-c3ccccn3)o2)[C@@H](c2cc3ccccc3cn2)c2nc[nH]c21 (single isomer, unassigned) [Example 386]        > 5000 nM
4  CC(O)c1nc(Br)c(C(=O)N2CCc3[nH]cnc3[C@@H]2c2ccc3ccccc3n2)o1 (single isomer, unassigned) [Example 131]  1000 to 5000 nM
5  Cc1nn(C)cc1-c1nnc(C(=O)N2CCc3[nH]cnc3[C@@H]2c2ncc3ccccc3n2)o1 [Example 199]        > 5000 nM

Field request: AC50 | item: O=C(c1ocnc1-c1ccccc1)N1CCc2[nH]cnc2[C@H]1c1cc2ccccc2cn1 [Example 348]
< 500 nM

Note, next up: O=C(c1nnc(-c2cnn(CC(F)(F)F)c2)o1)N1CCc2[nH]cnc2[C@@H]1c1ccc2ccccc2n1 (single isomer, unassigned) [Example 68]
> 5000 nM

Note, next up: O=C(c1cnn2cc(-c3cccnc3)ccc12)N1CCc2[nH]cnc2[C@H]1c1cc2ccccc2cn1 [Example 475]
< 500 nM
